Could you please report measured inhibition for the items listed next?
Target: Prostaglandin G/H synthase 1 (Ovis aries) (UniProt P05979)
Sequence (P05979 whole entry, looked up): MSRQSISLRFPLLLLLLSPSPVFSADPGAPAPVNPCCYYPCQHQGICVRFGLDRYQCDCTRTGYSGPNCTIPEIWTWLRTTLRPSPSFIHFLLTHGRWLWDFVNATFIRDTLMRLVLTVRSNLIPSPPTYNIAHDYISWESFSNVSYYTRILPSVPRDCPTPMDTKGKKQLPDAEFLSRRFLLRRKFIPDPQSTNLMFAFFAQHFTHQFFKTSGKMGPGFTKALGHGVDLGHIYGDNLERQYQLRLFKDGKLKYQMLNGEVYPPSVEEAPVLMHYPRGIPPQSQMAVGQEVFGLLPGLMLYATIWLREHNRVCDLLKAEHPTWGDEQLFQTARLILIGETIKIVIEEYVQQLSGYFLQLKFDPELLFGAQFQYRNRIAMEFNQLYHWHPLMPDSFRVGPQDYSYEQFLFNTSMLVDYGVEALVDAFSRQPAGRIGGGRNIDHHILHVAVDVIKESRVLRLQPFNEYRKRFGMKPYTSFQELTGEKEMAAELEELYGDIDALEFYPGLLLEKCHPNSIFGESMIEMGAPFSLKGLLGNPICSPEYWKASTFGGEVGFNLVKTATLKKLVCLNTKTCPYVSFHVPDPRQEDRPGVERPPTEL
Assay: Inhibition of Prostaglandin G/H synthase activity in sheep seminal vesicle was determined
Design: concentration or dose not given beside the values
Conditions: concentration not given here
Please give a number only; it is taken to be in %.

Input line: Please report the measured inhibition for `COc1ccc(/C=C/C(=O)c2ccccc2O)cc1O`
Output line: 8.6

Input line: Please report the measured inhibition for `O=C(/C=C/c1ccc(O)cc1)c1c(O)cc(O)cc1O`
Output line: 3.1

Input line: Please report the measured inhibition for `COc1ccc(C(=O)/C=C/c2ccc(O)c(OC)c2)cc1`
Output line: -7.3

Input line: Please report the measured inhibition for O=C(/C=C/c1ccccc1)c1c(O)cc(O)cc1O [2',4',6-TRIHYDROXYCHALCONE]
Output line: 6.9

Input line: Please report the measured inhibition for `O=C(/C=C/c1ccc(O)c(O)c1)c1ccc([N+](=O)[O-])cc1`
Output line: 5

====

Target: Prostaglandin G/H synthase 1 (Ovis aries)
Assay: Inhibition of Prostaglandin G/H synthase activity in sheep seminal vesicle was determined 100 uM
Could you please report measured IC50 for the items listed next?
Please give a number only; it is taken to be in µM.

Input line: Determine reported IC50 for `O=C(/C=C/c1ccc(O)c(O)c1)c1ccccc1O` ; test system: Prostaglandin G/H synthase 1 (Ovis aries).
Output line: 44

Input line: Determine reported IC50 for `O=C(/C=C/c1ccc(O)c(O)c1)c1ccccc1Cl` ; test system: Prostaglandin G/H synthase 1 (Ovis aries).
Output line: 71

Input line: Determine reported IC50 for `O=C(/C=C/c1ccc(O)c(O)c1)c1ccc(O)cc1O` ; test system: Prostaglandin G/H synthase 1 (Ovis aries).
Output line: 120

Input line: Determine reported IC50 for `COc1cc(/C=C/C(=O)c2ccccc2O)ccc1O` ; test system: Prostaglandin G/H synthase 1 (Ovis aries).
Output line: 63

====

Biological target: UniProt:P12527
Sequence (P12527 whole entry): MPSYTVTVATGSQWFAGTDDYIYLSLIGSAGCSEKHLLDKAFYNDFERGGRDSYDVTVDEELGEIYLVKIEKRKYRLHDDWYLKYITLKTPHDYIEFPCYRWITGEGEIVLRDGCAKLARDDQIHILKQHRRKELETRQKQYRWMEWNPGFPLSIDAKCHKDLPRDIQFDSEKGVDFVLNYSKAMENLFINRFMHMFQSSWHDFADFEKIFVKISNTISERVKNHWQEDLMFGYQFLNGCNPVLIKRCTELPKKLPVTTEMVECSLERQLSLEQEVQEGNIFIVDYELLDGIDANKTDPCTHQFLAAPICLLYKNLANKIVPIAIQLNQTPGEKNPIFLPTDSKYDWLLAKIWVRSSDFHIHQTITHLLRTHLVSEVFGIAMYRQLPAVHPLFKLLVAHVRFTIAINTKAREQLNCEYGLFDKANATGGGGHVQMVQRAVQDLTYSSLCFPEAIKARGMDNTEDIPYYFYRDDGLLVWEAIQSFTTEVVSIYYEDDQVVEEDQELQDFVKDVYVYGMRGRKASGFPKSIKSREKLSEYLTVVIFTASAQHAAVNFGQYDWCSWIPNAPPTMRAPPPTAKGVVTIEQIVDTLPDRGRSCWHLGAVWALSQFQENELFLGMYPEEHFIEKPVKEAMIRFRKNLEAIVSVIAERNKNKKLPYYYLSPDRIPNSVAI
Assay: In vitro inhibition against 5-lipoxygenase in RBL-1 cells was determined
Binned IC50; ranges: low bin = under 10 nM, mid bin = from 10 nM up to 30 nM, high bin = 30 nM and over

Input line: Into which category would you place `COc1ccc(C(=O)/C=C/c2ccc(O)c(O)c2)cc1OC` ?
Output line: mid bin

Input line: Into which category would you place `CC(C)Oc1ccc(O)c(C(=O)/C=C/c2ccc(O)c(O)c2)c1` ?
Output line: mid bin

Input line: Into which category would you place `O=C(/C=C/c1ccc(O)c(O)c1)c1ccccc1O` ?
Output line: mid bin

Input line: Into which category would you place `CCCCOc1ccc(O)c(C(=O)/C=C/c2ccc(O)c(O)c2)c1` ?
Output line: high bin

Input line: Into which category would you place `Cc1ccc(C)c(C(=O)/C=C/c2ccc(O)c(O)c2)c1` ?
Output line: mid bin

Input line: Into which category would you place `O=C(/C=C/c1ccc(O)cc1)c1ccc(O)cc1O` ?
Output line: high bin

Input line: Into which category would you place `COc1ccc(C(=O)/C=C/c2ccc(O)c(O)c2)cc1` ?
Output line: mid bin

Input line: Into which category would you place O=C(/C=C/c1ccc(O)c(O)c1)c1c(O)cc(O)cc1O [3,4,2',4',6'-PENTAHYDROXYCHALCONE] ?
Output line: high bin

Input line: Into which category would you place `O=C(/C=C/c1ccc(O)c(O)c1)c1ccc(O)cc1O` ?
Output line: low bin

Input line: Into which category would you place `COc1cccc(OC)c1C(=O)/C=C/c1ccc(O)c(O)c1` ?
Output line: high bin

Input line: Into which category would you place `O=C(/C=C/c1ccc(O)c(O)c1)c1ccccc1Cl` ?
Output line: high bin

Input line: Into which category would you place `CCOc1ccc(OCC)c(C(=O)/C=C/c2ccc(O)c(O)c2)c1` ?
Output line: low bin

Input line: Into which category would you place `COc1ccc(C(=O)/C=C/c2ccc(O)c(OC)c2)cc1` ?
Output line: high bin

Input line: Into which category would you place `Cc1ccc(C(=O)/C=C/c2ccc(O)c(O)c2)c(C)c1` ?
Output line: mid bin

Input line: Into which category would you place `CC(C)c1ccc(O)c(C(=O)/C=C/c2ccc(O)c(O)c2)c1` ?
Output line: low bin

Input line: Into which category would you place `CCOc1ccc(OC)cc1C(=O)/C=C/c1ccc(O)c(O)c1` ?
Output line: mid bin

Input line: Into which category would you place `COc1cc(C(=O)/C=C/c2ccc(O)c(O)c2)cc(OC)c1OC` ?
Output line: mid bin

Input line: Into which category would you place `COc1ccc(OC(C)C)cc1C(=O)/C=C/c1ccc(O)c(O)c1` ?
Output line: mid bin

Input line: Into which category would you place `COc1ccc(C)cc1C(=O)/C=C/c1ccc(O)c(O)c1` ?
Output line: mid bin

Input line: Into which category would you place `CN(C)c1ccc(C(=O)/C=C/c2ccc(O)c(O)c2)cc1` ?
Output line: low bin

Input line: Into which category would you place `CC(C)Oc1ccc(C(=O)/C=C/c2ccc(O)c(O)c2)cc1` ?
Output line: high bin
